Would you kindly list pIC50 for each of these compounds?
Test: Inhibition of recombinant Trypanosoma brucei rhodesain after 5 mins by spectrofluorimetric analysis
Answers are plain numbers, as −log10 of the molar value.

INSERT INTO measurements (molecule, readout_type, quantitative_result) VALUES
  ('N#Cc1nc(Nc2cccc(Br)c2)nc(NC2CCCC2)n1', 'pIC50', 8.22),
  ('N#Cc1nc(Nc2ccc(F)cc2)nc(NC2CCCC2)n1', 'pIC50', 7.40);

Task item: Which pIC50 value belongs to `N#Cc1nc(Nc2cccc(F)c2)nc(NC2CCCC2)n1` ?
Reply: 7.70

###

Molecular target: Cruzipain (Trypanosoma cruzi)
Experiment: Inhibition of recombinant Trypanosoma cruzi cruzain after 5 mins by spectrofluorimetric analysis
Readout Type: IC50
A bare number is not enough; add the unit after it.

Previously resolved entries follow.
INSERT INTO assay_data (molecule, result) VALUES
  ('N#Cc1nc(Nc2cc(F)cc(F)c2)nc(NC2CCCC2)n1', '4 nM'),
  ('N#Cc1nc(Nc2cccc([N+](=O)[O-])c2)nc(NC2CCCC2)n1', '1 nM'),
  ('N#Cc1nc(Nc2cccc(Cl)c2)nc(NC2CCCC2)n1', '2 nM'),
  ('CCn1cnc2c(Nc3cc(F)cc(F)c3)nc(C#N)nc21', '0.2 nM');

Task item: Which IC50 value belongs to `N#Cc1nc(Nc2cc(Cl)cc(Cl)c2)nc(NC2CCCC2)n1` ?
Reply: 10 nM

###

Target: UniProt:Q9Y5K2
Sequence (Q9Y5K2 whole entry): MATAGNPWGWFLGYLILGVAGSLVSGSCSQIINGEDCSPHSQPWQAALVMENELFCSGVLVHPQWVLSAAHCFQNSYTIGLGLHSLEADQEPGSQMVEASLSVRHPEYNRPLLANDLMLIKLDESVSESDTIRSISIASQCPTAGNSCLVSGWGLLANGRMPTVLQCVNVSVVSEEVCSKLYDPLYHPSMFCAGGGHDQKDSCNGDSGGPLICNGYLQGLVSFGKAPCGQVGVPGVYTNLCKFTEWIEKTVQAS
Readout Type: pIC50
Numbers only, as −log10 of the molar value.

Task item: Which pIC50 value belongs to `CCn1cnc2c(Nc3cc(F)cc(F)c3)nc(C#N)nc21` ?
Reply: 4.84

###

For reference, pIC50 measured on Tissue-type plasminogen activator (Homo sapiens, UniProt P00750):
Numbers only, as −log10 of the molar value.

INSERT INTO results (molecule, readout_type, quantitative_result) VALUES
  ('N#Cc1nc(Nc2cc(F)cc(F)c2)nc(NC2CCCC2)n1', 'pIC50', 5.89);

Task item: Please tell me: pIC50 of `N#Cc1nc(Nc2cccc(Cl)c2)nc(NC2CCCC2)n1` , system Tissue-type plasminogen activator (Homo sapiens, UniProt P00750)?
Reply: 6.07

###

Would you kindly list log10 IC50 for each of these compounds?
Molecular target: Cruzipain (Trypanosoma cruzi, UniProt P25779)
Sequence (P25779 whole entry): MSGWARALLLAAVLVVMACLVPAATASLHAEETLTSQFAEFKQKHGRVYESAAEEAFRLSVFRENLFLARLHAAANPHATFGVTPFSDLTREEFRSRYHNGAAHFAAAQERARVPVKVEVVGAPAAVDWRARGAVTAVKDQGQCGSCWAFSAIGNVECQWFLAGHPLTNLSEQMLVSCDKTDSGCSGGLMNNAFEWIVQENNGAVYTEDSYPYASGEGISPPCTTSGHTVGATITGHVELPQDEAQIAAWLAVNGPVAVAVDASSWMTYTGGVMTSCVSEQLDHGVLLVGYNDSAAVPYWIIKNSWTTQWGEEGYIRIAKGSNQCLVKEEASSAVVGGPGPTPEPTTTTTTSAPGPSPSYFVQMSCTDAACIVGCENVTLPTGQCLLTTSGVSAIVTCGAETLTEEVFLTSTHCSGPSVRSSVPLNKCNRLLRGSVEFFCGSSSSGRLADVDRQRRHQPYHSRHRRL
Assay: Inhibition of Trypanosoma cruzi cruzain after 15 mins
Conditions: read-out: IC50
Could you please treat all values as log10 of IC50 in nM?

Previously resolved entries follow.
INSERT INTO results (molecule, quantitative_result) VALUES
  ('CCCCNc1nc(C#N)nc(Nc2ccccc2)n1', 2.95),
  ('CCCNc1nc(C#N)nc(Nc2ccccc2)n1', 2.90),
  ('CCn1cnc2c(Nc3cccc(Cl)c3)nc(C#N)nc21', 1.26),
  ('N#Cc1nc(Nc2cccc(Cl)c2)c2ncn(C3CCCC3)c2n1', 1.60),
  ('N#Cc1nc(NCC(F)F)nc(Nc2cc(F)cc(F)c2)n1', 1.40);

// for each compound in input: emit log10 IC50
1. Cc1cccc(Nc2nc(C#N)nc(NC3CCCC3)n2)c1
2. N#Cc1nc(NCCCCO)nc(Nc2ccccc2)n1
3. N#Cc1nc(Nc2cccc(Br)c2)nc(NC2CCCC2)n1

Reply:
1: 2.10; 2: 2.95; 3: 2.00

// for each compound in input: emit log10 IC50
1. N#Cc1nc(Nc2cccc(-c3ccccc3)c2)nc(NC2CCCC2)n1
2. N#Cc1nc(Nc2cccc(F)c2)nc(NC2CCCC2)n1
3. N#Cc1nc(NCC(F)F)c2ncn(-c3cccc(Cl)c3)c2n1
4. CCn1cnc2c(Nc3cc(F)cc(F)c3)nc(C#N)nc21

Reply:
3.35
1.90
1.85
1.00

###

For reference, pIC50 measured on Cathepsin K (Homo sapiens):
Give bare numbers, as −log10 of the molar value.

Previously resolved entries follow.
INSERT INTO measurements (molecule, readout_type, quantitative_result) VALUES
  ('N#Cc1nc(Nc2cccc(Cl)c2)nc(NC2CCCC2)n1', 'pIC50', 7.76),
  ('CCn1cnc2c(Nc3cc(F)cc(F)c3)nc(C#N)nc21', 'pIC50', 7.63);

We now examine a further molecule.
Task item: Please tell me: pIC50 of `N#Cc1nc(Nc2cc(F)cc(F)c2)nc(NC2CCCC2)n1` , system Cathepsin K (Homo sapiens)?
Reply: 7.69

###

Would you kindly list IC50 for each of these compounds?
Biological target: Cruzipain (Trypanosoma cruzi, UniProt P25779)
Test: Inhibition of recombinant Trypanosoma cruzi cruzain after 5 mins by spectrofluorimetric analysis
Answers are plain numbers, in nM.

INSERT INTO results (molecule, quantitative_result) VALUES
  ('Cc1cccc(Nc2nc(C#N)nc(NC3CCCC3)n2)c1', 30),
  ('N#Cc1nc(Nc2cccc(Cl)c2)c2ncn(C3CCCC3)c2n1', 0.3),
  ('CCOc1nc(C#N)nc(N2CCCCC2)n1', 90),
  ('N#Cc1nc(N)nc(N(c2ccccc2)c2ccccc2)n1', 70),
  ('N#Cc1nc(Nc2cccc(F)c2)nc(NC2CCCC2)n1', 10),
  ('CCn1cnc2c(Nc3cccc(Cl)c3)nc(C#N)nc21', 0.4),
  ('N#Cc1nc(Nc2cccc(-c3ccccc3)c2)nc(NC2CCCC2)n1', 50),
  ('N#Cc1nc(Nc2cccc(Br)c2)nc(NC2CCCC2)n1', 2);

// for each compound in input: emit IC50
1. N#Cc1nc(NCC(F)F)nc(Nc2cc(F)cc(F)c2)n1
2. N#Cc1nc(Nc2cccc(C(F)(F)F)c2)nc(NC2CCCC2)n1
3. N#Cc1nc(Nc2ccc(F)cc2)nc(NC2CCCC2)n1
4. N#Cc1nc(Nc2ccc(Br)cc2)nc(NC2CCCC2)n1

Reply:
[1, 40, 30, 60]

###

Target: UniProt:P25774
Sequence (P25774 whole entry): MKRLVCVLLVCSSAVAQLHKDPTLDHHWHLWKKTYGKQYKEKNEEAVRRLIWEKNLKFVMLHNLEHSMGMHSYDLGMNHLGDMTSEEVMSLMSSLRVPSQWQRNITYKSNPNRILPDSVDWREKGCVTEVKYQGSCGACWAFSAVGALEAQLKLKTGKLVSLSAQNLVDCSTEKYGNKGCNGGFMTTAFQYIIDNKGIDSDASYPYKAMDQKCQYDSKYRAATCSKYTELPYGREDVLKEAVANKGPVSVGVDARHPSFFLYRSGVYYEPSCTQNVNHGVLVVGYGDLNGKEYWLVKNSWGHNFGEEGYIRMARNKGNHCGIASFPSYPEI
Readout Type: IC50 (nM)
One number for each entry, in nM.

INSERT INTO assay_data (molecule, quantitative_result) VALUES
  ('CCNc1nc(C#N)nc2c1ncn2-c1cc(F)cc(F)c1', 105),
  ('CCn1cnc2c(Nc3cc(F)cc(F)c3)nc(C#N)nc21', 15.8),
  ('N#Cc1nc(Nc2cc(F)cc(F)c2)nc(NC2CCCC2)n1', 5620);

We now examine a further compound.
Task item: Which IC50 value belongs to `N#Cc1nc(Nc2cccc(Cl)c2)nc(NC2CCCC2)n1` ?
Reply: 6460

###

Target chain: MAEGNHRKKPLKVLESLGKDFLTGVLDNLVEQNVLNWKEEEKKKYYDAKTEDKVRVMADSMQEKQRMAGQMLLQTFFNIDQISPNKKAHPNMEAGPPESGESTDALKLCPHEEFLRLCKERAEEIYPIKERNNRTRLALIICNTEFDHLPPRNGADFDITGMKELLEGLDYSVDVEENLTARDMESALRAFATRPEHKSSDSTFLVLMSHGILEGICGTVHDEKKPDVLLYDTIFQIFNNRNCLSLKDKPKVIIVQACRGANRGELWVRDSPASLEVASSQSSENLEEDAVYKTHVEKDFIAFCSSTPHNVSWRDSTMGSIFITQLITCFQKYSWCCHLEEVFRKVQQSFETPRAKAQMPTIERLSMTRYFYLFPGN
Readout Type: IC50
A bare number is not enough; add the unit after it.

INSERT INTO results (molecule, readout_type, result) VALUES
  ('N#Cc1nc(Nc2cc(F)cc(F)c2)nc(NC2CCCC2)n1', 'IC50', '8.13 µM');

Task item: Which IC50 value belongs to `CCn1cnc2c(Nc3cc(F)cc(F)c3)nc(C#N)nc21` ?
Reply: 33.1 µM

###

Biological target: UniProtKB P25779
Assay: Inhibition of Trypanosoma cruzi cruzain after 15 mins
Settings: read-out: IC50
Would you kindly list IC50 for each of these molecules?
A bare number is not enough; add the unit after it.

Previously resolved entries follow.
INSERT INTO assay_data (molecule, readout_type, result) VALUES
  ('N#Cc1nc(Nc2cccc(Cl)c2)nc(NC2CCCC2)n1', 'IC50', '79 nM'),
  ('N#Cc1nc(Nc2cc(F)cc(F)c2)c2ncn(CC(F)F)c2n1', 'IC50', '13 nM'),
  ('CC(C)CNc1nc(C#N)nc(Nc2ccccc2)n1', 'IC50', '890 nM');

// for each molecule in input: emit IC50
1. N#Cc1nc(NCC2CC2)nc(Nc2ccccc2)n1
2. CCNc1nc(C#N)nc2c1ncn2-c1cccc(Cl)c1
3. N#Cc1nc(Nc2ccc(Br)cc2)nc(NC2CCCC2)n1

Reply:
["890 nM", "63 nM", "1120 nM"]

###

Would you kindly list pIC50 for each of these molecules?
Target: Cruzipain (Trypanosoma cruzi, UniProt P25779)
Assay: Inhibition of Trypanosoma cruzi cruzain after 15 mins
Conditions: read-out: IC50
Answers are plain numbers, as −log10 of the molar value.

INSERT INTO assay_data (molecule, experimental_target, readout_type, quantitative_result) VALUES
  ('CCNc1nc(C#N)nc2c1ncn2-c1cc(F)cc(F)c1', 'Cruzipain (Trypanosoma cruzi, UniProt P25779)', 'pIC50', 6.60),
  ('N#Cc1nc(NCCO)nc(Nc2ccccc2)n1', 'Cruzipain (Trypanosoma cruzi, UniProt P25779)', 'pIC50', 5.80),
  ('N#Cc1nc(Nc2ccc(F)cc2)nc(NC2CCCC2)n1', 'Cruzipain (Trypanosoma cruzi, UniProt P25779)', 'pIC50', 6.90),
  ('N#Cc1nc(NC2CCCC2)c2ncn(-c3cc(F)cc(F)c3)c2n1', 'Cruzipain (Trypanosoma cruzi, UniProt P25779)', 'pIC50', 6.50);

// for each molecule in input: emit pIC50
1. N#Cc1nc(Nc2cc(F)cc(F)c2)c2ncn(C3CCCC3)c2n1
2. N#Cc1nc(Nc2cc(Cl)cc(Cl)c2)nc(NC2CCCC2)n1
3. N#Cc1nc(Nc2cc(F)cc(F)c2)nc(NC2CCCC2)n1
4. CNc1nc(C#N)nc(Nc2ccccc2)n1
5. N#Cc1nc(Nc2ccccc2)nc(NC2CCCC2)n1
6. N#Cc1nc(Nc2cccc([N+](=O)[O-])c2)nc(NC2CCCC2)n1
7. CCNc1nc(C#N)nc(Nc2ccccc2)n1

Reply:
1: 7.74; 2: 6.40; 3: 7.20; 4: 5.90; 5: 6.15; 6: 7.20; 7: 6.15

// for each molecule in input: emit pIC50
1. N#Cc1nc(NCC(F)F)c2ncn(-c3cc(F)cc(F)c3)c2n1
2. CC(C)Nc1nc(C#N)nc(Nc2ccccc2)n1
3. N#Cc1nc(Nc2ccccc2)nc(NC2CCCCC2)n1

Reply:
[7.30, 6.05, 5.85]
